Provenance of the data: ChEMBL document CHEMBL1145498

What follows is a collection of ΔTm values obtained with Mitogen-activated protein kinase 3 (Homo sapiens).
Sequence (P27361 whole entry): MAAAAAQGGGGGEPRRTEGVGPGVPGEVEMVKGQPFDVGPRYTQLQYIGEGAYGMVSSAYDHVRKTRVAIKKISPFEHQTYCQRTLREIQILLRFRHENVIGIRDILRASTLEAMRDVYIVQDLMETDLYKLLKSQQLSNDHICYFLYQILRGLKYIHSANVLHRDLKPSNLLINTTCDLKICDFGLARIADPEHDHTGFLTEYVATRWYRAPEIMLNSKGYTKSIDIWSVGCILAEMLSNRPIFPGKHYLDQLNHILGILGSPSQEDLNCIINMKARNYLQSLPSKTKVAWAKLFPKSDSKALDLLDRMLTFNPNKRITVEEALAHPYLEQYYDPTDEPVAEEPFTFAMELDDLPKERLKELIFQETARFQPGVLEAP
endpoint.name: ΔTm (°C)

1) COc1ccc(Cl)cc1NC(=O)Nc1cc(C)nc2ccccc12 :: 2.5
2) Nc1n[nH]c2nnc(-c3c(-c4ccccc4)nn4ccccc34)cc12 :: 0.4
3) Clc1ccc(Nc2nnc(Cc3ccncc3)c3ccccc23)cc1 :: 0
4) COc1nccc(-c2c(-c3ccc(F)cc3)ncn2[C@H]2CC[C@H](O)CC2)n1 :: 0
5) CCOC(=O)c1cnc2oc3ccc(O)cc3c2c1-c1ccccc1 :: -0.1
6) O=C(Nc1cccc(Nc2cc(Nc3cccc(C(F)(F)F)c3)ncn2)c1)C1CC1 :: 1.5
7) COc1cc2ncnc(Nc3ccc(F)c(Cl)c3)c2cc1OCCCN1CCOCC1 :: -0.2
8) Cc1cc(Nc2nc(-c3ccccc3)nc3ccccc23)n[nH]1 :: 0.1
9) COC1=C2C[C@@H](C)C[C@H](OC)[C@H](O)[C@@H](C)/C=C(\C)[C@H](OC(N)=O)[C@@H](OC)/C=C\C=C(/C)C(=O)NC(=CC1=O)C2=O :: 0.1
10) O=c1sn(Cc2ccccc2)c(=S)n1Cc1ccccc1 :: -0.3
11) COC(=O)[C@]1(O)C[C@@H]2O[C@@]1(C)n1c3ccccc3c3c4c(c5c6ccccc6n2c5c31)C(=O)NC4 (single isomer, unassigned) :: 2
12) NC1=NC(=O)/C(=C2\CCNC(=O)c3[nH]c(Br)cc32)N1 :: 0.9
13) CC(C)N(CCO)c1nc(Nc2cccc(Cl)c2)c2ncn(C(C)C)c2n1 :: 1.7
